- System: TK-10 renal
- test-protocol: NCI-60 one-dose screen, 48 h
- test-context: 10 µM unless noted
Compounds without any hit were thinned out: in the full panel of roughly 83,000, 20% have a hit. Calls of active or inactive are those of the source. The calls were made as follows: active = growth percent below 10; inactive = the rest.
Outcome codes: active, inactive

| compound | cat |
| --- | --- |
| O=C(CCN1CCCCC1)c1ccc2ccccc2c1 | inactive |
| CC1(C)OC2[C@@H](CNC(=O)NC(=O)NC(=O)CI)O[C@@H](n3cnc4c(NC(=O)Nc5ccccc5)ncnc43)[C@H]2O1 (stereo not given in full) | inactive |
| CNc1cc(C(=O)O)nc(NC)n1 | inactive |
| CC1(C)C(=O)/C(=C\c2ccco2)C[C@]2(C)[C@H]3CC=C4[C@@H]5C[C@](C)(C(=O)O)CC[C@]5(C)CC[C@@]4(C)[C@]3(C)CC[C@@H]12 | active |
| CCc1ccc(NC(=O)N[C@@H](Cc2cc(F)cc(F)c2)C(=O)N[C@@H]2C(=O)N3C[C@H](O)C[C@H]3C(=O)N3CCOC[C@H]3C(=O)N[C@@H](C)C(=O)N3C[C@H](C)C[C@H]3C(=O)O[C@H]2C)cc1 | inactive |
| Cc1cc(N2CCCCCC2)nc(N2CCN(CC(=O)Nc3ccc4c(ccn4Cc4ccccc4)c3)CC2)n1 | inactive |
| CCOc1cc(/C=N\NC(=O)N/N=C/c2ccc(O)c(OCC)c2)ccc1O | inactive |
| CSc1nc2sc3cc(Cl)c(Cl)cc3n2c(=N)c1C#N | inactive |
| COc1cc2c(O)n(CCCN3CCOCC3)c3c4cnc5cccc(c(=O)c3c2cc1OC)c54 | inactive |
| c1ccc(-c2nc(N3CCCNCC3)c3nc(-c4ccccc4)oc3n2)cc1 | active |
| CC(=O)OC[C@]12CC[C@@H](C(=O)CBr)[C@@H]1[C@H]1CC[C@@H]3[C@@]4(C)CCCNC(C)(C)[C@@H]4CC[C@@]3(C)[C@]1(C)CC2 | active |
| c1ccc(-c2nnc(-c3c[nH]c4ncccc34)s2)cc1 | inactive |
| C[n+]1c2ccccc2nc2c(N)cc(N)cc21 | inactive |
| CCCCOC(=O)c1c(C)[nH]c(/C=C2\N=C(c3ccc[nH]3)C=C2OC)c1C | active |
| CC(C)=CC/C=C(/C)[C@H]1CC[C@]2(C)[C@@H]1CC[C@@H]1[C@@]3(C)CCCNC(C)(C)[C@@H]3CC[C@]12C | active |
| CC(C)C1=NOC(=O)C1=Cc1cn(-c2ccccc2)nc1-c1ccc(Cl)cc1 | inactive |
| COC(=O)C(=Cc1ccccc1[N+](=O)[O-])C(=O)OC | inactive |
| O=C1COCCN1c1ccc(Nc2nc(Cl)nc(N3CCOCC3)n2)cc1 | inactive |
| Fc1cc2[nH]ncc2c2c3c(c(-c4cn[nH]c4)nc12)CCCC3 | inactive |
| CCCC(NC(=O)OCc1ccccc1)C(=O)O (stereo not given) | inactive |

###

- Tested on: SR leukemia
- test-protocol: NCI-60 one-dose screen, 48 h
- test-context: 10 µM unless noted
Compounds without any hit were thinned out: in the full panel of roughly 83,000, 20% have a hit. The source made the active and inactive calls. How the source made its calls: active means growth percent below 10; inactive means the rest.
Outcome codes: True for active, False for inactive

| compound-structure-string | cat |
| --- | --- |
| CCOc1ccc2sc(NS(=O)(=O)c3ccc(N)cc3)nc2c1 | False |
| O=C(CCCCCCSc1nc(-c2ccc(Cl)cc2)cc(-c2ccc(Cl)cc2)n1)NO | True |
| COc1cc(NCc2ccccc2O)c2ncccc2c1 | False |
| CC1(C)[C@@H](NOCCCN)CC[C@]2(C)[C@H]3C(=O)C=C4[C@@H]5C[C@](C)(C(=O)O)CC[C@]5(C)CC[C@@]4(C)[C@]3(C)CC[C@@H]12 | False |
| Cc1ccc(-c2cn(C/C=C3\C=CN(S(=O)(=O)c4ccccc4)CC3)nn2)cc1 | False |
| C=C(C)[C@@H]1CC[C@]2(C)[C@H](C(=O)C=C3[C@@H]4C[C@](C)(C(=O)N5CCN(C)CC5)CC[C@]4(C)CC[C@]32C)[C@@]1(C)CCC#N | False |
| COc1ccc2nc3cc(Cl)ccc3c(Nc3ccc(O)c(CN4CCCC4)c3)c2c1 | True |
| O=C1Nc2ccccc2/C1=C/C(=O)c1ccc(N2CCCCC2)cc1 | False |
| Nc1ccc(NC(=O)c2ccccc2)c2c1C(=O)c1ccccc1C2=O | False |

Entry source: PubChem BioAssay (NCI)
